Test system: BT-549
Lab note: compare GI50 with 3000 nM, writing true if less and false if equal or more.

# smiles_data, category_label
records = [
    ("Cc1cc(C)c(S(=O)(=O)N2CCN(c3cc4c(cc3F)c(=O)c(C(=O)O)cn4C3CC3)CC2)c(C)c1", "false"),
    ("CCn1cc(C(=O)O)c(=O)c2cc(F)c(N3CCN(S(=O)(=O)c4ccc(Cl)cc4)CC3)cc21", "true"),
    ("CCn1cc(C(=O)O)c(=O)c2cc(F)c(N3CCN(S(=O)(=O)c4ccc(Cl)cc4Cl)CC3)cc21", "true"),
    ("CCn1cc(C(=O)O)c(=O)c2cc(F)c(N3CCN(S(=O)(=O)c4cccc5ccccc45)CC3)cc21", "false"),
]

---

Tested on: NCI/ADR-RES
Assay: NCI five-dose SRB growth assay
Format: cell-based
Conditions: Homo sapiens; NCI/ADR-RES (Ovarian Cancer), 48 h
metric: GI50 (µM)

# smiles_data, data_value
measured = [
    ("CCn1cc(C(=O)O)c(=O)c2cc(F)c(N3CCN(S(=O)(=O)c4cccc5ccccc45)CC3)cc21", 3.2),
    ("CCn1cc(C(=O)O)c(=O)c2cc(F)c(N3CCN(S(=O)(=O)c4ccc(Cl)cc4Cl)CC3)cc21", 3.28),
    ("O=C(O)c1cn(C2CC2)c2cc(N3CCN(S(=O)(=O)c4ccc(Cl)c(Cl)c4)CC3)c(F)cc2c1=O", 4.01),
    ("Cc1cc(C)c(S(=O)(=O)N2CCN(c3cc4c(cc3F)c(=O)c(C(=O)O)cn4C3CC3)CC2)c(C)c1", 3.29),
    ("CCn1cc(C(=O)O)c(=O)c2cc(F)c(N3CCN(S(=O)(=O)c4ccc(Cl)cc4)CC3)cc21", 2.98),
]

---

Measured GI50 (PC-3)

# smiles_data, system, unit, GI50
data = [
    ("CCn1cc(C(=O)O)c(=O)c2cc(F)c(N3CCN(S(=O)(=O)c4ccc(Cl)cc4Cl)CC3)cc21", "PC-3", "nM", 2430),
    ("O=C(O)c1cn(C2CC2)c2cc(N3CCN(S(=O)(=O)c4ccc(Cl)c(Cl)c4)CC3)c(F)cc2c1=O", "PC-3", "nM", 2460),
    ("CCn1cc(C(=O)O)c(=O)c2cc(F)c(N3CCN(S(=O)(=O)c4cccc5ccccc45)CC3)cc21", "PC-3", "nM", 2660),
    ("CCn1cc(C(=O)O)c(=O)c2cc(F)c(N3CCN(S(=O)(=O)c4ccc(Cl)cc4)CC3)cc21", "PC-3", "nM", 2310),
]

---

The reader will find reported TGI (total growth inhibitory) values listed item by item below.
System: leukemia
Experiment: NCI five-dose SRB assay, subpanel average
Conditions: average over leukemia subpanel, five concentrations, 48 h
metric: TGI (total growth inhibitory) (µM)

# smiles_data, metric, unit, data_value
data = [
    ("CCn1cc(C(=O)O)c(=O)c2cc(F)c(N3CCN(S(=O)(=O)c4cccc5ccccc45)CC3)cc21", "TGI (total growth inhibitory)", "µM", 63.22),
    ("CCn1cc(C(=O)O)c(=O)c2cc(F)c(N3CCN(S(=O)(=O)c4ccc(Cl)cc4)CC3)cc21", "TGI (total growth inhibitory)", "µM", 80.96),
    ("CCn1cc(C(=O)O)c(=O)c2cc(F)c(N3CCN(S(=O)(=O)c4ccc(Cl)cc4Cl)CC3)cc21", "TGI (total growth inhibitory)", "µM", 62.54),
    ("O=C(O)c1cn(C2CC2)c2cc(N3CCN(S(=O)(=O)c4ccc(Cl)c(Cl)c4)CC3)c(F)cc2c1=O", "TGI (total growth inhibitory)", "µM", 62.55),
    ("Cc1cc(C)c(S(=O)(=O)N2CCN(c3cc4c(cc3F)c(=O)c(C(=O)O)cn4C3CC3)CC2)c(C)c1", "TGI (total growth inhibitory)", "µM", 76.70),
]
